Below: a set of entries, each annotated with reported inhibition at 5.2 µg/mL.
# system.tested: fatty acyl CoA: cholesterol acyl transferase (ACAT) (Rattus norvegicus, UniProt O70536)
# Construct: The supernatant, containing the microsomal fraction, served as the source of the cholesterol-esterifying enzyme; from tissue; host or cells: rat adrenals, supernatant of 1,000 x g centrifugation containing the microsomal fraction
# experiment.summary: Inhibition of fatty acyl CoA:cholesterol acyl transferase (ACAT), rat adrenal enzyme
# Type: biochemical
# condition.summary: rat adrenal ACAT; final concentration 5.2 μg/ml; read-out: % Inhibition
# Method: The compounds of the present invention were assayed for two types of biological activity related to their potential use as antiatherosclerotic agents. […] The compounds were tested for their ability to inhibit ACAT according to the following procedure: rat adrenals were homogenized in 0.2M monobasic potassium phosphate buffer, pH 7.4, and centrifuged at 1,000 times gravity for 15 minutes at 5° C. […] The cholesteryl ester fraction was counted in a scintillation counter. […]
Could you give me the number in %? Just the number is fine.

CCCCOc1ccc(CN(Cc2ccccc2)C(=O)Nc2c(Cl)cc(Cl)cc2Cl)cc1 : 95.2

Request: Name the recorded inhibition at 5.2 µg/mL for "CCOc1ccc(CCN(Cc2ccccc2Cl)C(=O)Nc2ccc(C)cc2C)cc1" .
Result: 94.1

Request: Name the recorded inhibition at 5.2 µg/mL for COc1cccc(C(Cc2ccccc2)N(Cc2ccccc2)C(=O)Nc2cccc(C(F)(F)F)c2)c1 (centres unmarked) .
Result: 88.1

----------
# Test system: cholesterol absorption
# experiment.summary: Inhibition of cholesterol absorption in rats fed 1% cholesterol:0.5% cholic acid diet
# Format: in vivo, male Sprague-Dawley rats
# condition.summary: po, 336 h; rat; dose .03% of the diet, 2 weeks; read-out: SS (serum sterol), percentage of control values
property.label: response vs control in vivo at 0.03 % (%)
Could you give me the number in %? Just the number is fine.

Request: Name the recorded response vs control in vivo at 0.03 % for "CC(C)CCN(Cc1ccc(C(C)C)cc1)C(=O)Nc1c(F)cc(F)cc1F" .
Result: 31

Request: Name the recorded response vs control in vivo at 0.03 % for "CCCCCCCN(Cc1ccc(OCCCC)cc1)C(=O)Nc1c(Cl)cc(Cl)cc1Cl" .
Result: 35

Request: Name the recorded response vs control in vivo at 0.03 % for "CC(C)(C)CCN(Cc1ccc(CC(C)(C)C)cc1)C(=O)Nc1ccc(F)cc1F" .
Result: 35

Request: Name the recorded response vs control in vivo at 0.03 % for "O=C(Nc1cc(Cl)c(Cl)cc1Cl)N(Cc1ccc(Cl)cc1)Cc1cccc2ccccc12" .
Result: 84

Request: Name the recorded response vs control in vivo at 0.03 % for "CCCCOc1ccc(CN(Cc2ccccc2)C(=O)Nc2ccc(Cl)cc2Cl)cc1" .
Result: 53

Request: Name the recorded response vs control in vivo at 0.03 % for "CCCCc1ccc(CN(CCC(C)(C)C)C(=O)Nc2c(Cl)cc(Cl)cc2Cl)cc1" .
Result: 37

Request: Name the recorded response vs control in vivo at 0.03 % for "CCCCc1ccc(CN(CCCCC(C)(C)C)C(=O)Nc2ccc(F)cc2F)cc1" .
Result: 59

Request: Name the recorded response vs control in vivo at 0.03 % for "CCCCc1ccc(CN(CCCCC(C)(C)C)C(=O)Nc2ccc(Cl)cc2C)cc1" .
Result: 42

Request: Name the recorded response vs control in vivo at 0.03 % for "CCCCCCCN(Cc1ccc(CCCC)cc1)C(=O)Nc1ccccc1C" .
Result: 35

Request: Name the recorded response vs control in vivo at 0.03 % for "CCCCc1ccc(CN(CCCCCCCl)C(=O)Nc2ccc(Cl)cc2C)cc1" .
Result: 46

----------
Below: a set of entries, each annotated with reported inhibition at 5.2 µg/mL.
# system.tested: fatty acyl CoA: cholesterol acyl transferase (ACAT) (Rattus norvegicus, UniProt O70536)
# Construct: The supernatant, containing the microsomal fraction, served as the source of the cholesterol-esterifying enzyme; from tissue; host or cells: rat adrenals, supernatant of 1,000 x g centrifugation containing the microsomal fraction
# Sequence (O70536 1-545): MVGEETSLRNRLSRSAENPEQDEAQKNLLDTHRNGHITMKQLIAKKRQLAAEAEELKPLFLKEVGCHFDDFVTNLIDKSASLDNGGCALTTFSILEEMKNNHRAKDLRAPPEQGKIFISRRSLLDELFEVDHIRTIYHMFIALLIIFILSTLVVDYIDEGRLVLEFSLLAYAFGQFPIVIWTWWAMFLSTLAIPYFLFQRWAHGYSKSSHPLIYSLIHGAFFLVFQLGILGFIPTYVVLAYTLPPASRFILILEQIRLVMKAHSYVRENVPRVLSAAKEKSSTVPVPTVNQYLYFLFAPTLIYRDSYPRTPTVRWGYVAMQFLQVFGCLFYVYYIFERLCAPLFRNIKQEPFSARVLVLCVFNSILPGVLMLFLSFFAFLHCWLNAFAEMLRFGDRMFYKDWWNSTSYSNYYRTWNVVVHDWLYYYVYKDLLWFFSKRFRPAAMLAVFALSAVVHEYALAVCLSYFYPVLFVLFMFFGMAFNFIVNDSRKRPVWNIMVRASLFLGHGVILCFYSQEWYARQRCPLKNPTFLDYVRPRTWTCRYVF
# experiment.summary: Inhibition of fatty acyl CoA:cholesterol acyl transferase (ACAT), rat adrenal enzyme
# Assay type: biochemical
# condition.summary: rat adrenal ACAT; final concentration 5.2 μg/ml; read-out: % Inhibition
Could you give me the number in %? Just the number is fine.

CCCCN(Cc1ccc(Cl)cc1)C(=O)Nc1ccc(C)cc1C : 94.6
Cc1cccc(CN(CCc2ccccc2Cl)C(=O)Nc2ccc(C)cc2C)c1 : 56.1
CCCCN(CCCc1ccccc1)C(=O)Nc1ccc(C)cc1C : 97.4
CCCCN(Cc1ccc2c(c1)OCO2)C(=O)Nc1ccc(C)cc1C : 88.2
CCCCN(Cc1ccccc1)C(=O)Nc1ccc(C)cc1 : 78
O=C(Nc1ccc(Cl)cc1C(F)(F)F)N(Cc1ccccc1)C(Cc1ccccc1)c1ccc(OCc2ccccc2)cc1 (stereo not drawn) : 92

Request: Name the recorded inhibition at 5.2 µg/mL for "O=C(Nc1ccc(Cl)cc1C(F)(F)F)N(Cc1ccc(Cl)cc1)Cc1cccc2ccccc12" .
Result: 83

Request: Name the recorded inhibition at 5.2 µg/mL for "CCCCc1ccc(CN(Cc2ccccc2)C(=O)Nc2c(C)cc(C)cc2C)cc1" .
Result: 92.8

Request: Name the recorded inhibition at 5.2 µg/mL for "CCCCN(CCc1ccccc1)C(=O)Nc1ccc(C)cc1C" .
Result: 87.9

Request: Name the recorded inhibition at 5.2 µg/mL for "CCCCCCCN(C(=O)Nc1cc(C)c(C)cc1C)c1ccco1" .
Result: 93.8

Request: Name the recorded inhibition at 5.2 µg/mL for "CCCCN(Cc1ccccc1Cl)C(=O)Nc1ccc(C)cc1C" .
Result: 95.5

Request: Name the recorded inhibition at 5.2 µg/mL for "CCCCOc1ccc(CN(Cc2ccccc2)C(=O)Nc2ccc(Cl)cc2C(F)(F)F)cc1" .
Result: 85

Request: Name the recorded inhibition at 5.2 µg/mL for "CCCCCOc1ccc(CN(Cc2ccc(CCCCC)cc2)C(=O)Nc2ccc(Cl)cc2C(F)(F)F)cc1" .
Result: 81

Request: Name the recorded inhibition at 5.2 µg/mL for "CCCCN(Cc1ccc(C(C)(C)C)cc1)C(=O)Nc1ccc(C)cc1C" .
Result: 96.4

----------
# Tested on: cholesterol absorption
# experiment.summary: Inhibition of cholesterol absorption in rats fed 1% cholesterol:0.5% cholic acid diet
# Type: in vivo, male Sprague-Dawley rats
# condition.summary: po, 336 h; rat; dose .001% of the diet, 2 weeks; read-out: LS (liver sterol), percentage of control values
Label TRUE when response vs control in vivo at 0.001 % is strictly below 80%; at or above that, label FALSE.

These recorded examples may help you get a feel for the data.
CCCCCCCN(Cc1ccc(CC(C)CC)cc1)C(=O)Nc1c(F)cc(F)cc1F (stereo not shown) : TRUE
CCCCCCCN(Cc1ccc(CC2CCC2)cc1)C(=O)Nc1c(C)cc(Cl)cc1C : TRUE
CCCCCCCN(Cc1ccc(CCCC(C)C)cc1)C(=O)Nc1c(C)cc(Cl)cc1C : TRUE
CCCCCCCN(Cc1ccc(CC(CC)CC)cc1)C(=O)Nc1c(F)cc(F)cc1F : TRUE
CCCCCCCN(Cc1ccc(C(C)CCCC(C)C)cc1)C(=O)Nc1c(C)cc(Cl)cc1C (stereo not shown) : FALSE
CCCCCCCN(Cc1ccc(C(C)CCCC(C)C)cc1)C(=O)Nc1ccc(F)cc1F (stereo not shown) : FALSE

Request: I'd appreciate it if you could check whether CCCCCCCN(Cc1ccc(CC(C)CCC)cc1)C(=O)Nc1c(C)cc(Cl)cc1C (stereo not shown) has response vs control in vivo at 0.001 % smaller than 80%.
Result: TRUE

Request: I'd appreciate it if you could check whether CCCCCCCN(Cc1ccc(CC(CC)CCCC)cc1)C(=O)Nc1c(F)cc(F)cc1F (stereo not shown) has response vs control in vivo at 0.001 % smaller than 80%.
Result: FALSE

Request: I'd appreciate it if you could check whether "CCCCCCCN(Cc1ccc(OCCC(C)C)cc1)C(=O)Nc1ccc(F)cc1F" has response vs control in vivo at 0.001 % smaller than 80%.
Result: TRUE
